tested.system: ZIKV NS2B/NS3 protease (Zika virus, UniProt Q32ZE1)
Construct: cut from ZIKV genome polyprotein
Sequence (Q32ZE1 1499-1668): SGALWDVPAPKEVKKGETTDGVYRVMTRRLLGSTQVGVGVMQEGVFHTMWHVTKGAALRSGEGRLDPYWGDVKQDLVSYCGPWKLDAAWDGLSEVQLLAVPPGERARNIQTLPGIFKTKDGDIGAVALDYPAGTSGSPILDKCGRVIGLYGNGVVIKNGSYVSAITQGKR
Sequence (Q32ZE1 1417-1463): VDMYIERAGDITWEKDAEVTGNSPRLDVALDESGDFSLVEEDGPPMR
test.protocol: fluorogenic protease assay, AMC release
# maps each entry to its IC50
Note: unit µM is implicit; provide only the numeric part.

* COc1ccc2c(O[C@@H]3C[C@H]4C(=O)N[C@]5(C(=O)NS(=O)(=O)C6CC6)C[C@H]5/C=C\CCCCN(C)C(=O)[C@@H]4C3)cc(-c3nc(C(C)C)cs3)nc2c1C | 2.6

Exercise: # lookup: IC50 of C=C[C@@H]1C[C@]1(NC(=O)[C@@H]1C[C@@H](Oc2ncc(OC)c3ccc(Cl)cc23)CN1C(=O)[C@@H](NC(=O)OC(C)(C)C)C(C)(C)C)C(=O)NS(=O)(=O)C1CC1
Key: 6

The values you see were collected from paper PMC7265434.
